Test: Metabolic stability in human liver microsomes
Assay type: ADME, Microsome
Details: read-out: Stability
property_label: half-life (min)
Field: numeric (min). Do not append units.

Exam item: Quick one: give measured half-life for CN(c1ccccc1-c1cc(Cl)c2cnc(Nc3ccc(C4CCN(CC(N)=O)CC4)cc3)nn12)S(C)(=O)=O
Marked response: 11

----------
Target: Focal adhesion kinase 1 (Homo sapiens, UniProt Q05397)
Sequence (Q05397 whole entry): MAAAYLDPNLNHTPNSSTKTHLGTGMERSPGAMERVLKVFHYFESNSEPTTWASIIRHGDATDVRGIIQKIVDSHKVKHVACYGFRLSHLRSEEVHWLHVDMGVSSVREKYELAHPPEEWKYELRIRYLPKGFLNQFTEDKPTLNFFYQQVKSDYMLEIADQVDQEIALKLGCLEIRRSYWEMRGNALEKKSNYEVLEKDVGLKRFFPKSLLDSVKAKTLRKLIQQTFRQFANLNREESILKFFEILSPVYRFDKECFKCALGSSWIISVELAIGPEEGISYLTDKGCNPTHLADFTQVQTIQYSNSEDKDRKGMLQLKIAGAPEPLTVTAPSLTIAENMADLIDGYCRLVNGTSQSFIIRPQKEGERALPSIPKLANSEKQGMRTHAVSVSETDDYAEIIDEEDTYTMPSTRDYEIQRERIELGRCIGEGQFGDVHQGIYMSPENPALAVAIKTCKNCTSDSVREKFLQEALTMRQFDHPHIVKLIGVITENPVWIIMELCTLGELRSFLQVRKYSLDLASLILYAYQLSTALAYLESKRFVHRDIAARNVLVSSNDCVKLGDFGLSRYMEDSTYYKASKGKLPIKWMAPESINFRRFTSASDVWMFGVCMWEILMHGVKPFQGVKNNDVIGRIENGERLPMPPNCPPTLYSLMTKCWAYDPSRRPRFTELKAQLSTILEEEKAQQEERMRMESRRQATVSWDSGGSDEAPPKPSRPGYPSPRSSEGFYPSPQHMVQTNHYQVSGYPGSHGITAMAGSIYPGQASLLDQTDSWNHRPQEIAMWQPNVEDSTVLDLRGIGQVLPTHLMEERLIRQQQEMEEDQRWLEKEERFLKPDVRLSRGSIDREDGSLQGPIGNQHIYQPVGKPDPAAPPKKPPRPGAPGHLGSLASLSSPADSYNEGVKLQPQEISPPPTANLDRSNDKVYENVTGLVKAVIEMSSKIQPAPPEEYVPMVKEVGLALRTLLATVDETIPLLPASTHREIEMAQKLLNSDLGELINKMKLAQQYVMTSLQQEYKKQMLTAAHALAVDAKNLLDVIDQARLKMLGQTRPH
Assay: Inhibition of human recombinant FAK expressed in baculovirus expression system after 30 mins by time resolved fluorescence assay
property_label: IC50 (nM)

chemical_string	value_units	endpoint_value
COc1cc(Nc2ncc3ccc(-c4ccccc4)n3n2)cc(OC)c1OC	nM	17
COc1cccnc1-c1ccc2cnc(Nc3ccc(C4CCN(CC(N)=O)CC4)cc3)nn12	nM	2040
CN(c1ncccc1-c1ccc2cnc(Nc3ccc(C4CCN(CC(N)=O)CC4)cc3)nn12)S(C)(=O)=O	nM	14

a: CS(=O)(=O)c1cccc(-c2ccc3cnc(Nc4ccc(C5CCN(CC(N)=O)CC5)cc4)nn23)c1
b: NC(=O)CN1CCC(c2ccc(Nc3ncc4ccc(-c5cccc6cccnc56)n4n3)cc2)CC1
Exam item: Kindly identify the item with the lower IC50 figure among these two: a and b Respond using the label that marks the chosen record.
Marked response: a
(a: 25 nM, b: 167 nM)

----------
Assay: Metabolic stability in dog liver microsomes
Assay type: ADME, Canis lupus familiaris, Microsome
Details: read-out: Stability
property_label: half-life (min)

P: CN(c1ccccc1-c1ccc2cnc(Nc3ccc(C4CCN(CC(N)=O)CC4)cc3)nn12)S(C)(=O)=O
Q: CN(c1ccccc1-c1cc(Cl)c2cnc(Nc3ccc(C4CCN(CC(N)=O)CC4)cc3)nn12)S(C)(=O)=O
Exam item: Param pair: P , Q . Output: the one whose half-life is numerically greater. Respond using the label that marks the chosen record.
Marked response: Q

----------
Molecular target: Insulin receptor (Homo sapiens)
Sequence (P06213 28-758 limits assumed): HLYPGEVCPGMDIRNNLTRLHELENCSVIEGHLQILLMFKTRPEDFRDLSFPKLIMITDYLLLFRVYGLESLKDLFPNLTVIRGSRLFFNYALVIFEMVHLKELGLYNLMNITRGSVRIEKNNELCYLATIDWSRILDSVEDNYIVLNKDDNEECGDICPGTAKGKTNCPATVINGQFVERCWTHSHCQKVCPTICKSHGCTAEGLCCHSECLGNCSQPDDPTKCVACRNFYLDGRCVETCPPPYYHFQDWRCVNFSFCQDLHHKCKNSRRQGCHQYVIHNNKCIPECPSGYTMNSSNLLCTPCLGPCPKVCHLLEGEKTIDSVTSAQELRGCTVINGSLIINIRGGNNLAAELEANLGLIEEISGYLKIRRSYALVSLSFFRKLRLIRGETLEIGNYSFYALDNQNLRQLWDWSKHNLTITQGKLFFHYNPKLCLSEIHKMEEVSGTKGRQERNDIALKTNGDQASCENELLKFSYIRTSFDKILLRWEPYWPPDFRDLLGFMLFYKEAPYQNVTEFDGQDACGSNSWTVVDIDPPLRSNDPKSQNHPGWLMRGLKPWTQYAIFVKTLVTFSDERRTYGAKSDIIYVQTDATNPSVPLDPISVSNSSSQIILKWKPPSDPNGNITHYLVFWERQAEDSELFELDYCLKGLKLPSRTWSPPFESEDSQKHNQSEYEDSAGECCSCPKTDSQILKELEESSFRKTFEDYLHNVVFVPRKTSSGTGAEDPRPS
Sequence (P06213 763-1382 limits assumed): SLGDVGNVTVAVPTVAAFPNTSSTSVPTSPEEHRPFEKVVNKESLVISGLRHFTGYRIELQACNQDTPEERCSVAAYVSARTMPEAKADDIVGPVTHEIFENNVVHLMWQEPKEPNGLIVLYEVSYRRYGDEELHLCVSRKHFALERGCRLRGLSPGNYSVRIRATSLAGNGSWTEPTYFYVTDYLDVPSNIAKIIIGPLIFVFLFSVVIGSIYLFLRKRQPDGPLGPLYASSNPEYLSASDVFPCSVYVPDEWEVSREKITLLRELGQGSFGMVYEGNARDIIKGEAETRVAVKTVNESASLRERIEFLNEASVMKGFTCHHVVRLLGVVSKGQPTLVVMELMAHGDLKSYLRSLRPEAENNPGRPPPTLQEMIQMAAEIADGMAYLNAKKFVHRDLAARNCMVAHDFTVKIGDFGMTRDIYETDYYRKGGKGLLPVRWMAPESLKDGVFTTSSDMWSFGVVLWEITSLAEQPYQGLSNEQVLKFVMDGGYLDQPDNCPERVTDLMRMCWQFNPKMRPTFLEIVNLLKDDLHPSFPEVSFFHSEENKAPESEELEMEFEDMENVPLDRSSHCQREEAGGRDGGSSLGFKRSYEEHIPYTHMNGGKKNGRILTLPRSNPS
property_label: pIC50
Here pIC50 is given on a logarithmic scale as minus log10 of the concentration in mol/L.

Exam item: Quick one: give measured pIC50 for CN(c1ccccc1-c1cc(Cl)c2cnc(Nc3ccc(C4CCN(CC(N)=O)CC4)cc3)nn12)S(C)(=O)=O
Marked response: 6.42

----------
Test: Cmax in Sprague-Dawley rat at 5 mg/kg, po
Format: ADME, organism-based
Set-up: dose 5 mg/kg, route oral
Details: in vivo
property_label: Cmax (ng/mL)
Field: numeric (ng/mL). Do not append units.

Exam item: Quick one: give measured Cmax for CN(c1ccccc1-c1cc(Cl)c2cnc(Nc3ccc(C4CCN(CC(N)=O)CC4)cc3)nn12)S(C)(=O)=O
Marked response: 185

----------
Target: UniProt:O60674
Sequence (O60674 whole entry): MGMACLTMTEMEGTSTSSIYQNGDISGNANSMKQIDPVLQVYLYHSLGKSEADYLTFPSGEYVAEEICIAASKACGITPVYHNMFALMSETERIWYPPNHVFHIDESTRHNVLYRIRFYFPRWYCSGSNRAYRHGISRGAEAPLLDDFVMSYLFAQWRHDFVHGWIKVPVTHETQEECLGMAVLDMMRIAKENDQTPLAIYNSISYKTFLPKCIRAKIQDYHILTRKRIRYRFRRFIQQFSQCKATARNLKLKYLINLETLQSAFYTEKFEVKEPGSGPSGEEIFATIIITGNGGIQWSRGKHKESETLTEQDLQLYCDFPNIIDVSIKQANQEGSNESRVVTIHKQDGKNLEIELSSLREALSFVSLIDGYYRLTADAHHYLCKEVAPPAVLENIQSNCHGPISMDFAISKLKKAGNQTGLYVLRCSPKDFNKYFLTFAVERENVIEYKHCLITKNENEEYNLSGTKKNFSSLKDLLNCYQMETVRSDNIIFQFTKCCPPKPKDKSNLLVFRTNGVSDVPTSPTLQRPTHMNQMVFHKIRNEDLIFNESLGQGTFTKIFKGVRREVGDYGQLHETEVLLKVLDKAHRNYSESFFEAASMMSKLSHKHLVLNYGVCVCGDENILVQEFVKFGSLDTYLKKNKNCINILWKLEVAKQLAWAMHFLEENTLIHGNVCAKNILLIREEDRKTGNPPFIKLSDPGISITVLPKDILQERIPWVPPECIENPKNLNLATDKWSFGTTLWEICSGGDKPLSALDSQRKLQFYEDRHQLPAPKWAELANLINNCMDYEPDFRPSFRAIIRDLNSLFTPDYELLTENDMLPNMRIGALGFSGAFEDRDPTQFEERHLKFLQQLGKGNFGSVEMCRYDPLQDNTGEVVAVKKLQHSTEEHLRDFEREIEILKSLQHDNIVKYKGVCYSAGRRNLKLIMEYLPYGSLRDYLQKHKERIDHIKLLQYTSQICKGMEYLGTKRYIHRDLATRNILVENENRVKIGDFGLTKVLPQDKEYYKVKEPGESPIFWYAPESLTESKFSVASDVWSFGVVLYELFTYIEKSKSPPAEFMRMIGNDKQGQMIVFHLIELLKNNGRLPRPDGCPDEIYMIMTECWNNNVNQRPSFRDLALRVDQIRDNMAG
Experiment: Inhibition of JAK2 in GM-CSF-stimulated human TF1 cells preincubated for 1 hr prior to challenge
property_label: IC50 (nM)

chemical_string	property_label	endpoint_value
COc1ccc(-c2ccc3cnc(Nc4ccc(C5CCN(CC(N)=O)CC5)cc4)nn23)cn1	IC50	62

P: CN(c1cccc(-c2ccc3cnc(Nc4ccc(C5CCN(CC(N)=O)CC5)cc4)nn23)c1)S(C)(=O)=O
Q: COc1cccnc1-c1ccc2cnc(Nc3ccc(C4CCN(CC(N)=O)CC4)cc3)nn12
R: CN(c1ccccc1-c1cc(Cl)c2cnc(Nc3ccc(C4CCN(CC(N)=O)CC4)cc3)nn12)S(C)(=O)=O
Exam item: Arrange by IC50, high to low. Write out the labels following the order that was asked for.
Marked response: Q, P, R

A: CS(=O)(=O)c1cccc(-c2ccc3cnc(Nc4ccc(C5CCN(CC(N)=O)CC5)cc4)nn23)c1
B: NC(=O)CN1CCC(c2ccc(Nc3ncc4ccc(-c5cccc6cccnc56)n4n3)cc2)CC1
C: CS(=O)(=O)c1ccc(-c2ccc3cnc(Nc4ccc(C5CCN(CC(N)=O)CC5)cc4)nn23)cc1
D: NC(=O)CN1CCC(c2ccc(Nc3ncc4ccc(-c5cnccn5)n4n3)cc2)CC1
Exam item: Arrange by IC50, high to low. Write out the labels following the order that was asked for.
Marked response: D, B, A, C
(D: 282 nM, B: 170 nM, A: 58 nM, C: 29 nM)

a: CN(c1ncccc1-c1ccc2cnc(Nc3ccc(C4CCN(CC(N)=O)CC4)cc3)nn12)S(C)(=O)=O
b: CN(c1ccccc1-c1ccc2cnc(Nc3ccc(C4CCN(CC(N)=O)CC4)cc3)nn12)S(C)(=O)=O
Exam item: Kindly identify the item with the lower IC50 figure among these two: a and b Respond using the label that marks the chosen record.
Marked response: b

A: COc1ccccc1-c1ccc2cnc(Nc3ccc(C4CCN(CC(N)=O)CC4)cc3)nn12
B: NC(=O)CN1CCC(c2ccc(Nc3ncc4ccc(-c5cccc(CO)c5)n4n3)cc2)CC1
C: CC(C)(C)NS(=O)(=O)c1cccc(-c2ccc3cnc(Nc4ccc(C5CCN(CC(N)=O)CC5)cc4)nn23)c1
D: CS(=O)(=O)Nc1cccc(-c2ccc3cnc(Nc4ccc(C5CCN(CC(N)=O)CC5)cc4)nn23)c1
Exam item: Task for the reader: rank each entry by its IC50, from the minimum upward. Write out the labels following the order that was asked for.
Marked response: B, A, D, C
(B: 27 nM, A: 41 nM, D: 60 nM, C: 90 nM)
